The values you see were collected from PubChem BioAssay (NCI).

system: OVCAR-8 ovarian; test: NCI tumour cell line growth inhibition, 48 h

{"COMPOUND": "Cc1ccc(C(CCO)CCO)nc1", "TGI": "> 100 µM"}
{"COMPOUND": "CCCc1nn(C)c(CCC(=O)N(Cc2ccccc2)Cc2ccccc2)c1CC", "TGI": "> 100 µM"}
{"COMPOUND": "Cl.[O-]c1cccc2cccnc12.[O-]c1cccc2cccnc12.[O-]c1cccc2cccnc12.[O-]c1cccc2cccnc12.[Ti+4]", "TGI": "> 31.5 µM"}
{"COMPOUND": "CCCCCC1CC=CC(NC(=O)OCc2ccccc2)C1/C=C/CCCC1OCCO1 (stereo unspecified)", "TGI": "> 100 µM"}
{"COMPOUND": "C/C1=C\\CC[C@@]2(C)O[C@@H]2C[C@@H]2[C@H](C/C(C)=C/CC1)OC(=O)[C@]21CO1", "TGI": "> 100 µM"}
{"COMPOUND": "Cc1c2c(n3c(nc4ccccc43)c1C#N)NCC2", "TGI": "> 10 µM"}
{"COMPOUND": "CCCn1cc(/C=N\\N=C2\\C(=O)Nc3ccc(C)cc32)c2ccccc21", "TGI": "> 100 µM"}
{"COMPOUND": "O=C(/C=C/c1ccc(Cl)cc1)c1nc2ccccc2[nH]1", "TGI": "> 100 µM"}
{"COMPOUND": "CN(C)c1ccc2cc3c(cc2c1)Oc1ccccc1N3.[Cl][Zn][Cl]", "TGI": "> 100 µM"}
{"COMPOUND": "CCOC(=O)c1c(Br)c(-c2ccc([N+](=O)[O-])cc2)c(Br)n1C", "TGI": "> 10 µM"}
{"COMPOUND": "C[n+]1ccc2/c(=C\\C#N)c3ccccc3n21", "TGI": "> 100 µM"}
